Task for the reader: assign each of the following compounds its reported pIC50.
Target: EBP (Homo sapiens, UniProt Q15125)
Construct: HEK293T cells were utilized as the source of EBP enzyme; endogenous in cells
Sequence (Q15125 whole entry): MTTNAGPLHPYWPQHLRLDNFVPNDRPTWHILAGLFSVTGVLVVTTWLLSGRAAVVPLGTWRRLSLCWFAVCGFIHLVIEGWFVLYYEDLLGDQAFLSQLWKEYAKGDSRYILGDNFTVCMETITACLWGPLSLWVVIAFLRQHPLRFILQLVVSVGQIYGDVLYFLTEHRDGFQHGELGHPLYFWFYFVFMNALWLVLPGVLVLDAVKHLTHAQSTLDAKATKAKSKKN
Assay: EBP Functional Assay (EBP immunoaffinity LC-MS assay)
Settings: HEK293T cells as source of EBP enzyme; 30 min with inhibitor, then zymosterol-d5, 37° C. for 4 h; percent conversion by LC-APCI MRM MS
pIC50: −log10 of the molar value.

compound | quantity-name | result
CC1CCN([C@@H]2C[C@H]3CC[C@@H](C2)N3S(=O)(=O)c2cn(-c3ccccc3)nn2)CC1 | pIC50 | 5.70 to 6.82
CC1CCN([C@@H]2C[C@H]3CC[C@@H](C2)N3S(=O)(=O)c2ccc(OC(F)F)cc2)CC1 | pIC50 | > 7.30
O=S(=O)(c1ccc(OC(F)F)cc1)N1[C@@H]2CC[C@H]1C[C@H](NCC1CCOCC1)C2 | pIC50 | > 7.30
CC12CC(NC3CC4CCC(C3)N4S(=O)(=O)c3ccc(OC(F)F)cc3)(CO1)C2 (stereo not shown) | pIC50 | > 7.30

Value sought for every listed compound: pIC50.
1. CC1CCN([C@@H]2C[C@H]3CC[C@@H](C2)N3S(=O)(=O)c2cc(-c3ccccc3)n[nH]2)CC1
2. CN(C1CCOCC1)[C@@H]1C[C@H]2CC[C@@H](C1)N2S(=O)(=O)c1ccc(OC(F)F)cc1
3. Cc1ccnc(-n2cc(S(=O)(=O)N3[C@@H]4CC[C@H]3C[C@H](N3CCC(C)CC3)C4)cn2)c1

OUT:
1. > 7.30
2. 5.70 to 6.82
3. > 7.30

---

Record form. Attribute: IC50. Fill in for each entry.
Target: EBP (Homo sapiens, UniProt Q15125)
Construct: HEK293T cells were utilized as the source of EBP enzyme; endogenous in cells
Assay: EBP Functional Assay (EBP immunoaffinity LC-MS assay)
Settings: HEK293T cells as source of EBP enzyme; 30 min with inhibitor, then zymosterol-d5, 37° C. for 4 h; percent conversion by LC-APCI MRM MS

molecule | IC50
O=S(=O)(c1ccc(OC(F)F)cc1)N1[C@@H]2CC[C@H]1C[C@@H](NC[C@H]1C[C@@H](O)C1)C2 (single isomer, unassigned) | 50 to 150 nM
O=S(=O)(c1ccc(OC(F)F)cc1)N1[C@@H]2CC[C@H]1C[C@@H](NCC1(F)COC1)C2 (single isomer, unassigned) | 150 to 2000 nM
Cc1ccc(S(=O)(=O)N2[C@@H]3CC[C@H]2C[C@H](N2CCC(C)CC2)C3)c(C)n1 | 50 to 150 nM

Okay, here is my list. What is IC50 for each of these?
1. Cc1cnc(S(=O)(=O)N2[C@@H]3CC[C@H]2C[C@H](N2CCC(C)CC2)C3)c(C)c1
2. Cc1nc(C(F)(F)F)ccc1S(=O)(=O)N1[C@@H]2CC[C@H]1C[C@@H](NCC1(C)COC1)C2 (single isomer, unassigned)
3. Cc1nc(C(F)(F)F)ccc1S(=O)(=O)N1[C@@H]2CC[C@H]1C[C@H](NC1CC3(COC3)C1)C2 (single isomer, unassigned)
4. CC1CCN([C@H]2C[C@H]3CC[C@@H](C2)N3S(=O)(=O)c2cnc(C3CCOCC3)o2)CC1
5. Cc1nonc1S(=O)(=O)N1[C@@H]2CC[C@H]1C[C@@H](N1CCC(C)CC1)C2
6. Cc1cnn(C)c1S(=O)(=O)N1[C@@H]2CC[C@H]1C[C@H](N1CCC(C)CC1)C2
7. Cc1nc(C(F)(F)F)ccc1S(=O)(=O)N1[C@@H]2CC[C@H]1C[C@H](NCC1(C)COC1)C2 (single isomer, unassigned)
8. O=S(=O)(c1ccc(OC(F)F)cc1)N1C2CCC1CC(NC[C@H]1C[C@H]1CO)C2 (mixture of isomers)

OUT:
1: 150 to 2000 nM; 2: < 50 nM; 3: < 50 nM; 4: < 50 nM; 5: < 50 nM; 6: < 50 nM; 7: < 50 nM; 8: 150 to 2000 nM

All values here come from patent US20250161281A1.
